- study target: Tryptophan--tRNA ligase (Mycobacterium tuberculosis (strain ATCC 25618 / H37Rv))
- protocol text: Biochemical assay for Mt-TrpRS
- Format: functional
- Set-up: scale not given: direction of the effect not stated beside the values
- reported conditions: 10 µM
The whole screen tested about 65,000 compounds, of which about 65 (0.1%) showed an effect of 50% or more. The full list was thinned out, with strong results kept by preference.
Please go through the items and note down their Percent Effect.
Numbers only, in %.

Completed entries (count: 5):
compound | measure unit | Percent Effect
CSC1=Nc2c(cnn2-c2cccc(Cl)c2)C2=NCCCN12 | % | 1.3
O=C(NCc1ccco1)[C@@H]1CCO[C@@H]2CCN(c3ncccn3)C[C@@H]21 | % | 3.59
O=C1C[C@H]2[C@@H](CCN2C(=O)c2ccoc2)N1CCN1CCOCC1 | % | 2.55
CN1C(=O)CC(C(=O)O)C12CCN(Cc1ccc(Cl)c(Cl)c1)CC2 (stereo unspecified) | % | -7.74
CN1C(=O)CC(C(=O)O)C12CCN(Cc1ccc(F)c(Cl)c1)CC2 (stereo unspecified) | % | -3.47

Looking for the measured Percent Effect of CN1C(=O)CC(C(=O)O)C12CCN(Cc1ccc(Cl)c(F)c1)CC2 (stereo unspecified) , can you help? 54.6

Hello, the source for this data is ChEMBL document CHEMBL3988442, in case you need it.
